Biological target: CXCR3A (Homo sapiens, UniProt P49682)
Construct: expressed in transfected cells; host or cells: U87 cells
Sequence (P49682 whole entry): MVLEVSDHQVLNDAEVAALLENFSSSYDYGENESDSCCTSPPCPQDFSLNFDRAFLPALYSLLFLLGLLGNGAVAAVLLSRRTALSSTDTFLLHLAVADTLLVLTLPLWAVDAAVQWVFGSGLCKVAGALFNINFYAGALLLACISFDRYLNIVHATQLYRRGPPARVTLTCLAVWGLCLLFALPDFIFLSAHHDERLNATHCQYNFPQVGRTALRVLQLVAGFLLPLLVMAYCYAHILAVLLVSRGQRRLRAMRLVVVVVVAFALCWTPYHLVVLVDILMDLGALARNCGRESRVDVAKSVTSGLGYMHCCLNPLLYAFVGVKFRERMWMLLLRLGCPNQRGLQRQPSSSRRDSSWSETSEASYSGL
Test: Figure S2a opioid peptide screen on chemokine receptors
Type: cell-based
Design: dose or concentration left out as unconfirmed
Conditions: replicate 3, read-out: CXCR3A activity, ctrl+ = 100
Starred links: 1 amine or outer side, 2 acyl side, 3 side chain; linkers in the order of their positions; H or OH if unused. Non-standard residues stand in square brackets, D forms with d. Residues, ends and D or L forms follow the SMILES beside them. X1 = N[C@@H](Cc1ccccc1)CN(CC(=O)[*:2])[*:1]
# activation listing for each entry below
Write the value in % as a bare number.

>  <Molecule>
C[C@H](NC(=O)CNC(=O)[C@@H](NC(=O)[C@H](Cc1ccccc1)NC(=O)CNC(=O)CNC[C@@H](N)Cc1ccccc1)[C@@H](C)O)C(=O)N[C@@H](CCCNC(=N)N)C(=O)N[C@@H](CCCCN)C(=O)N[C@@H](CO)C(=O)N[C@@H](C)C(=O)N[C@@H](CCCNC(=N)N)C(=O)N[C@@H](CCCCN)C(N)=O [FG Nociceptin 1-13] (H-[X1]GFTGARKSARK-NH2)

>  <activation / %>
-3.37

$$$$
>  <Molecule>
CSCC[C@H](NC(=O)[C@H](Cc1ccccc1)NC(=O)CNC(=O)CNC(=O)[C@@H](N)Cc1ccc(O)cc1)C(=O)N[C@@H](CCCNC(=N)N)C(=O)N[C@@H](CCCNC(=N)N)C(=O)N[C@H](C(N)=O)C(C)C

>  <activation / %>
3.64

$$$$

So for "CC(C)C[C@H](NC(=O)[C@H](Cc1ccccc1)NC(=O)CNC(=O)CNC(=O)[C@@H](N)Cc1ccc(O)cc1)C(=O)N[C@@H](CCCN=C(N)N)C(=O)N[C@@H](CCCN=C(N)N)C(=O)N[C@@H](CCC(N)=O)C(=O)N[C@@H](Cc1ccccc1)C(=O)N[C@@H](CCCCN)C(=O)N[C@H](C(=O)N[C@H](C(=O)N[C@H](C(=O)O)[C@@H](C)O)C(C)C)C(C)C" , the logged activation turned out to be -1.97
